assay_info: Tissue distribution in SD rats after single subcutaneous injection
Format: in vivo, SD rat
protocol_conditions: male, SD, rat, muscle, sc, 10 mg/kg
Peptide text beside a SMILES is read from it.
measured_metric: tissue level at time at 0.5 h (ng/g)
Kindly answer with a numeric value in ng/g, unit omitted.

INPUT: Data request, read-out tissue level at time at 0.5 h, for CC(C)[C@@H](NC(=O)[C@H](N)Cc1ccc(O)cc1)C(=O)N[C@H](CC(=O)O)C(=O)N[C@H](CCCCN)C(=O)N[C@H](CCCNC(=N)N)C(=O)O [FC-12738, (D-Tyr)-(D-Val)-(D-Asp)-(D-Lys)-(D-Arg)] (HELM PEPTIDE1{[dY].[dV].[dD].[dK].[dR]}$$$$V2.0)
OUTPUT: 1490

----------
assay_info: Tissue distribution in SD rats after single subcutaneous injection
Format: in vivo, SD rat
protocol_conditions: male, SD, rat, muscle, sc, 10 mg/kg
Peptide text beside a SMILES is read from it.
measured_metric: tissue level at time at 8 h
Express the reported value numerically, then name its unit.

INPUT: Data request, read-out tissue level at time at 8 h, for CC(C)[C@@H](NC(=O)[C@H](N)Cc1ccc(O)cc1)C(=O)N[C@H](CC(=O)O)C(=O)N[C@H](CCCCN)C(=O)N[C@H](CCCNC(=N)N)C(=O)O [FC-12738, (D-Tyr)-(D-Val)-(D-Asp)-(D-Lys)-(D-Arg)] (HELM PEPTIDE1{[dY].[dV].[dD].[dK].[dR]}$$$$V2.0)
OUTPUT: 46.4 ng/g

----------
assay_info: Plasma and brain levels in male CD-1 mice after a single IP dose
Assay type: in vivo, CD-1 mouse
protocol_conditions: male, CD-1, mouse, brain homogenate, ip, 10 mg/kg
Peptide text beside a SMILES is read from it.
measured_metric: level at 0.5 h (ng/mL)
Kindly answer with a numeric value in ng/mL, unit omitted.

INPUT: Data request, read-out level at 0.5 h, for CC(C)[C@@H](NC(=O)[C@H](N)Cc1ccc(O)cc1)C(=O)N[C@H](CC(=O)O)C(=O)N[C@H](CCCCN)C(=O)N[C@H](CCCNC(=N)N)C(=O)O [FC-12738, (D-Tyr)-(D-Val)-(D-Asp)-(D-Lys)-(D-Arg)] (HELM PEPTIDE1{[dY].[dV].[dD].[dK].[dR]}$$$$V2.0)
OUTPUT: 16.4

----------
assay_info: Single rising dose pharmacokinetics in beagle dogs
Assay type: in vivo, beagle dog
protocol_conditions: male, beagle, dog, plasma, sc, 1 mg/kg
Peptide text beside a SMILES is read from it.
measured_metric: AUC(0-t)
Express the reported value numerically, then name its unit.

INPUT: Data request, read-out AUC(0-t), for CC(C)[C@@H](NC(=O)[C@H](N)Cc1ccc(O)cc1)C(=O)N[C@H](CC(=O)O)C(=O)N[C@H](CCCCN)C(=O)N[C@H](CCCNC(=N)N)C(=O)O [FC-12738, (D-Tyr)-(D-Val)-(D-Asp)-(D-Lys)-(D-Arg)] (HELM PEPTIDE1{[dY].[dV].[dD].[dK].[dR]}$$$$V2.0)
OUTPUT: 2760 ng·h/mL

----------
assay_info: Plasma and brain levels in male CD-1 mice after a single IP dose
Type: in vivo, CD-1 mouse
protocol_conditions: male, CD-1, mouse, plasma, ip, 10 mg/kg
Peptide text beside a SMILES is read from it.
measured_metric: level at 0.5 h (µg/mL)
Kindly answer with a numeric value in µg/mL, unit omitted.

INPUT: Data request, read-out level at 0.5 h, for CC(C)[C@@H](NC(=O)[C@H](N)Cc1ccc(O)cc1)C(=O)N[C@H](CC(=O)O)C(=O)N[C@H](CCCCN)C(=O)N[C@H](CCCNC(=N)N)C(=O)O [FC-12738, (D-Tyr)-(D-Val)-(D-Asp)-(D-Lys)-(D-Arg)] (HELM PEPTIDE1{[dY].[dV].[dD].[dK].[dR]}$$$$V2.0)
OUTPUT: 2.09

----------
assay_info: In vitro protein binding, rapid equilibrium dialysis
Assay type: in vitro ADME
protocol_conditions: cynomolgus monkey, plasma
Peptide text beside a SMILES is read from it.
measured_metric: fraction unbound at 6 h, 10 µM
Please state the value as a number alone, without comment.

INPUT: Data request, read-out fraction unbound at 6 h, 10 µM, for CC(C)[C@@H](NC(=O)[C@H](N)Cc1ccc(O)cc1)C(=O)N[C@H](CC(=O)O)C(=O)N[C@H](CCCCN)C(=O)N[C@H](CCCNC(=N)N)C(=O)O [FC-12738, (D-Tyr)-(D-Val)-(D-Asp)-(D-Lys)-(D-Arg)] (HELM PEPTIDE1{[dY].[dV].[dD].[dK].[dR]}$$$$V2.0)
OUTPUT: 0.736

----------
assay_info: Single-dose pharmacokinetics in beagle dogs
Assay type: in vivo, beagle dog
protocol_conditions: male, beagle, dog, plasma, iv, 1 mg/kg
Peptide text beside a SMILES is read from it.
measured_metric: AUC(0-inf) (ng·h/mL)
Kindly answer with a numeric value in ng·h/mL, unit omitted.

INPUT: Data request, read-out AUC(0-inf), for CC(C)[C@@H](NC(=O)[C@H](N)Cc1ccc(O)cc1)C(=O)N[C@H](CC(=O)O)C(=O)N[C@H](CCCCN)C(=O)N[C@H](CCCNC(=N)N)C(=O)O [FC-12738, (D-Tyr)-(D-Val)-(D-Asp)-(D-Lys)-(D-Arg)] (HELM PEPTIDE1{[dY].[dV].[dD].[dK].[dR]}$$$$V2.0)
OUTPUT: 2900

----------
assay_info: Tissue distribution in SD rats after single subcutaneous injection
Format: in vivo, SD rat
protocol_conditions: male, SD, rat, plasma, sc, 10 mg/kg
Peptide text beside a SMILES is read from it.
measured_metric: Tmax (min)
Kindly answer with a numeric value in min, unit omitted.

INPUT: Data request, read-out Tmax, for CC(C)[C@@H](NC(=O)[C@H](N)Cc1ccc(O)cc1)C(=O)N[C@H](CC(=O)O)C(=O)N[C@H](CCCCN)C(=O)N[C@H](CCCNC(=N)N)C(=O)O [FC-12738, (D-Tyr)-(D-Val)-(D-Asp)-(D-Lys)-(D-Arg)] (HELM PEPTIDE1{[dY].[dV].[dD].[dK].[dR]}$$$$V2.0)
OUTPUT: 30

----------
assay_info: Single-dose pharmacokinetics in beagle dogs
Type: in vivo, beagle dog
protocol_conditions: male, beagle, dog, plasma, sc, 5 mg/kg
Peptide text beside a SMILES is read from it.
measured_metric: Tmax (min)
Kindly answer with a numeric value in min, unit omitted.

INPUT: Data request, read-out Tmax, for CC(C)[C@@H](NC(=O)[C@H](N)Cc1ccc(O)cc1)C(=O)N[C@H](CC(=O)O)C(=O)N[C@H](CCCCN)C(=O)N[C@H](CCCNC(=N)N)C(=O)O [FC-12738, (D-Tyr)-(D-Val)-(D-Asp)-(D-Lys)-(D-Arg)] (HELM PEPTIDE1{[dY].[dV].[dD].[dK].[dR]}$$$$V2.0)
OUTPUT: 50

----------
assay_info: In vitro protein binding, rapid equilibrium dialysis
Type: in vitro ADME
protocol_conditions: beagle, dog, plasma
Peptide text beside a SMILES is read from it.
measured_metric: fraction unbound at 6 h, 2 µM

INPUT: Data request, read-out fraction unbound at 6 h, 2 µM, for CC(C)[C@@H](NC(=O)[C@H](N)Cc1ccc(O)cc1)C(=O)N[C@H](CC(=O)O)C(=O)N[C@H](CCCCN)C(=O)N[C@H](CCCNC(=N)N)C(=O)O [FC-12738, (D-Tyr)-(D-Val)-(D-Asp)-(D-Lys)-(D-Arg)] (HELM PEPTIDE1{[dY].[dV].[dD].[dK].[dR]}$$$$V2.0)
OUTPUT: 0.461

----------
assay_info: Plasma and brain levels in male CD-1 mice after a single IP dose
Format: in vivo, CD-1 mouse
protocol_conditions: male, CD-1, mouse, brain, ip, 10 mg/kg
Peptide text beside a SMILES is read from it.
measured_metric: tissue level at time at 0.5 h (ng/g)
Kindly answer with a numeric value in ng/g, unit omitted.

INPUT: Data request, read-out tissue level at time at 0.5 h, for CC(C)[C@@H](NC(=O)[C@H](N)Cc1ccc(O)cc1)C(=O)N[C@H](CC(=O)O)C(=O)N[C@H](CCCCN)C(=O)N[C@H](CCCNC(=N)N)C(=O)O [FC-12738, (D-Tyr)-(D-Val)-(D-Asp)-(D-Lys)-(D-Arg)] (HELM PEPTIDE1{[dY].[dV].[dD].[dK].[dR]}$$$$V2.0)
OUTPUT: 65.5

----------
assay_info: Tissue distribution in SD rats after single subcutaneous injection
Format: in vivo, SD rat
protocol_conditions: male, SD, rat, lung, sc, 10 mg/kg
Peptide text beside a SMILES is read from it.
measured_metric: tissue level at time at 8 h (ng/g)
Kindly answer with a numeric value in ng/g, unit omitted.

INPUT: Data request, read-out tissue level at time at 8 h, for CC(C)[C@@H](NC(=O)[C@H](N)Cc1ccc(O)cc1)C(=O)N[C@H](CC(=O)O)C(=O)N[C@H](CCCCN)C(=O)N[C@H](CCCNC(=N)N)C(=O)O [FC-12738, (D-Tyr)-(D-Val)-(D-Asp)-(D-Lys)-(D-Arg)] (HELM PEPTIDE1{[dY].[dV].[dD].[dK].[dR]}$$$$V2.0)
OUTPUT: 109
